pKd: −log10 of the molar value.
Dear all, this message contains pKd results, target or system kinase enzymes (Homo sapiens, UniProt P48736).
quantity_kind: pKd

INSERT INTO measurements (compound, quantity_kind, numeric_value) VALUES
  ('CNCCNC(=O)c1cc([C@@H](C)Oc2cccc(F)c2)c2nc(N3CCOCC3)cnc2c1 [Compound 122a]', 'pKd', 5.10);

I. CC(Nc1cc(F)cc(F)c1)c1cc(C(=O)O)cc2ncc(N3CCOCC3)nc12 (single isomer, unassigned) [Compound 83c]
II. CC(Nc1ccc(F)c(F)c1)c1cc(C(=O)NCC(C)(C)O)cc2ncc(N3CCOCC3)nc12 (single isomer, unassigned) [Compound 348a]
So which one has the bigger pKd here, I or II ? Write down the label of the entry you select.
I
(I: 5.57, II: 4.53)

* * *

pKd: −log10 of the molar value.
Below are pKd values recorded for kinase enzymes (Homo sapiens, UniProt P48736).
quantity_kind: pKd

INSERT INTO results (compound, numeric_value) VALUES
  ('CC(C)NCCNC(=O)c1cc(C(C)Oc2cccc(F)c2)c2nc(N3CCOCC3)cnc2c1 (single isomer, unassigned) [Compound 314b]', 4.78),
  ('O=C(NCCO)c1cc(N2CCCC2c2cc(F)cc(F)c2)c2nc(N3CCOCC3)cnc2c1 (single isomer, unassigned)', 4.88),
  ('CN[C@H]1CCN(C(=O)c2cc(NCc3cc(F)cc(F)c3)c3nc(N4CCOCC4)cnc3c2)C1', 5.01),
  ('CC(Nc1cccc(F)c1)c1cc(C(=O)NCC(=O)O)cc2ncc(N3CCOCC3)nc12 (single isomer, unassigned) [Compound 393b]', 5.18),
  ('CNCCNC(=O)c1cc(C(C)Nc2cc(F)cc(F)c2)c2nc(N3CCOCC3)cnc2c1 (single isomer, unassigned) [Compound 406b]', 5.42);

I. CNCCNC(=O)c1cc(C(C)Nc2cccc(F)c2)c2nc(N3CCOCC3)cnc2c1 (stereo not shown) [Compound 282]
II. CC(Nc1ccc(F)c(F)c1)c1cc(C(=O)NCCO)cc2ncc(N3CCOCC3)nc12 (single isomer, unassigned) [Compound 279a]
Kindly identify which of I and II has the larger recorded pKd value. # respond with the chosen item's label
I

* * *

- tested_target: PI3Kβ (Homo sapiens)
- Construct: purchased DiscoveRx Corporation, San Diego (contract service, KINOMEscan)
- Sequence (P42338 whole entry): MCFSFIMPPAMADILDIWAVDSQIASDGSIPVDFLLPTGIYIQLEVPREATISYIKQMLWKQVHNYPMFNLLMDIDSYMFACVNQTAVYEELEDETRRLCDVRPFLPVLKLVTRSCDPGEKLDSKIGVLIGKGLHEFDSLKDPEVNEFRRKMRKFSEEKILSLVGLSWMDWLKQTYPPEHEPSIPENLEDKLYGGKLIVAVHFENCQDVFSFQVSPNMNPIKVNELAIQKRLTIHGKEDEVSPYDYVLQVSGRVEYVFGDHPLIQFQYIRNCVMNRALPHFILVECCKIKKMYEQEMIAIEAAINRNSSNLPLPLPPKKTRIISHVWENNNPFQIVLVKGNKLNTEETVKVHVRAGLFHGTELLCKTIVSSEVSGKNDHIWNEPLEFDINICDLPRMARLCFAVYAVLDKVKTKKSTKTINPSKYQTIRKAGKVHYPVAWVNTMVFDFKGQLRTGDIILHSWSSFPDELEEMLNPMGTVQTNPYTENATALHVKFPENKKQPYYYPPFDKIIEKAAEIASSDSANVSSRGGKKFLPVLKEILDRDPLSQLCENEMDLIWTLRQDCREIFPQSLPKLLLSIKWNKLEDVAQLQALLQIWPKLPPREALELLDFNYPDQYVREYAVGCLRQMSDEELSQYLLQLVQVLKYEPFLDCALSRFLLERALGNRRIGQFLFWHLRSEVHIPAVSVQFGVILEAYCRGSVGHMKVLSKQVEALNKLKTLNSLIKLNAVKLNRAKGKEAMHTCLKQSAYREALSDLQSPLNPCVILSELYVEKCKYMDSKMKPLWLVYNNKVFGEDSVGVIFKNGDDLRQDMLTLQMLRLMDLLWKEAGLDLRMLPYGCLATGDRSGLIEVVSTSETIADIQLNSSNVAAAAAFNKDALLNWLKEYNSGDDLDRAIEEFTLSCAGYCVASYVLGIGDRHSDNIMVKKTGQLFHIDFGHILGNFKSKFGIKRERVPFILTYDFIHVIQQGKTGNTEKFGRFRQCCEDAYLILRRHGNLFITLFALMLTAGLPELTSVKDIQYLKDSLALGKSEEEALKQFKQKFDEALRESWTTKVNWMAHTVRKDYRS
- measurement_protocol: Enzyme binding assay (KINOMEscan, DiscoveRx)
- details: PIK3Cβ_h, read-out: Kd PIK3Cβ_h
pKd: −log10 of the molar value.
quantity_kind: pKd

The examples below pair each entry with its known result.
INSERT INTO results (molecule, tested_target, quantity_kind, numeric_value) VALUES
  ('CC1CN(c2cnc3cc(C(=O)N(C)C)cc(C4CCCN4c4cc(F)cc(F)c4)c3n2)CCO1 (stereo not drawn) [Compound 36]', 'PI3Kβ (Homo sapiens)', 'pKd', 8.70),
  ('CC(Nc1ccc(F)c(F)c1)c1cc(C(=O)NC[C@H]2CCCN2)cc2ncc(N3CCOCC3)nc12 (stereo partly drawn) [Compound 376]', 'PI3Kβ (Homo sapiens)', 'pKd', 9.00),
  ('COC(=O)[C@@H]1CCCN1C(=O)c1cc(C(C)Nc2cc(F)cc(F)c2)c2nc(N3CCOCC3)cnc2c1 (stereo partly drawn) [Compound 273]', 'PI3Kβ (Homo sapiens)', 'pKd', 8.10);

1. CC(C)NCCN(C)C(=O)c1cc(NCc2cc(F)cc(F)c2)c2nc(N3CCOCC3)cnc2c1 [Compound 389]
2. CC(C)NCCNC(=O)c1cc(C(C)Nc2ccc(F)c(F)c2)c2nc(N3CCOCC3)cnc2c1 (single isomer, unassigned) [Compound 364a]
Of 1 and 2 , which carries the smaller reported pKd figure? Answer by stating the label of the chosen item.
1
(1: 8.30, 2: 9.00)

1. CC1CN(c2cnc3cc(C(=O)N(C)C)cc(N4CCCC4c4cc(F)cc(F)c4)c3n2)CCO1 (stereo not drawn) [Compound 396]
2. Fc1cc(F)cc(N2CCCC2c2cncc3ncc(N4CCOCC4)nc23)c1 (single isomer, unassigned) [Compound 24]
3. CC1CN(c2cnc3cc(C(=O)N(C)C)cc(C(C)Nc4cccc(F)c4)c3n2)CCO1 (stereo not drawn) [Compound 136]
4. Cc1c(F)cccc1NCc1cc(C(=O)NCCO)cc2ncc(N3CCOCC3)nc12 [Compound 381]
5. CN(C)C(=O)c1cc(NCc2cc(F)cc(F)c2)c2nc(N3CCOCC3)cnc2c1 [Compound 278]
Please give the order of these molecules when sorted by pKd, largest value leading. Write the labels, ordered according to the request.
2, 3, 5, 4, 1
(2: 9.00, 3: 8.52, 5: 8.10, 4: 7.59, 1: 6.92)

1. CNCCNC(=O)c1cc(NCc2cc(F)cc(F)c2)c2nc(N3CCOCC3)cnc2c1 [Compound 340]
2. C[C@H](CO)NCc1ccc(F)cc1N1CCCC1c1cc(C(=O)N(C)C)cc2ncc(N3CCOCC3)nc12 (mixture of isomers) [Compound 67]
Select the item whose pKd value is smaller, choosing between 1 and 2 . Please reply using the label of the selected record.
2

a. CNCCOCCN(C)C(=O)c1cc(C(C)Nc2cc(F)cc(F)c2)c2nc(N3CCOCC3)cnc2c1 (single isomer, unassigned) [Compound 175]
b. CN[C@H]1CCN(C(=O)c2cc(C(C)Oc3cc(F)c(F)c(F)c3)c3nc(N4CCOCC4)cnc3c2)C1 (single isomer, unassigned) [Compound 405a]
c. CN(C)C(=O)c1cc(C2CCCN2c2cccc(C(F)(F)F)c2)c2nc(N3CCOCC3)cnc2c1 (stereo not drawn) [Compound 52]
d. CC(Nc1cc(F)cc(F)c1)c1cc(C(=O)N2CCN(C)CC2)cc2ncc(N3CCOCC3)nc12 (stereo not drawn) [Compound 144]
Ascending by pKd, please. Returns: the labels listed in the requested order.
b, c, d, a
(b: 6.30, c: 7.42, d: 8.70, a: 9.40)

I. CC(Nc1cc(F)cc(F)c1)c1cc(CNCCS(C)(=O)=O)cc2ncc(N3CCOCC3)nc12 (stereo not drawn) [Compound 173]
II. CC(Nc1ccc(F)c(F)c1)c1cc(C(=O)N2CCN3CCC[C@@H]3C2)cc2ncc(N3CCOCC3)nc12 (single isomer, unassigned) [Compound 347b]
III. CC(Oc1cc(F)c(F)c(F)c1)c1cc(C(=O)N(C)C2CCNC2)cc2ncc(N3CCOCC3)nc12 (single isomer, unassigned) [Compound 404a]
IV. CNCCN(C)C(=O)c1cc(C(C)Nc2cc(F)c(F)c(F)c2)c2nc(N3CCOCC3)cnc2c1 (single isomer, unassigned) [Compound 335a]
Ascending sort, pKd. Answer by listing the labels in the order asked for.
III, II, I, IV
(III: 5.82, II: 8.70, I: 9.00, IV: 9.70)

I. O=C(NCCO)c1cc(N2CCCC2c2cc(F)cc(F)c2)c2nc(N3CCOCC3)cnc2c1 (single isomer, unassigned) [Compound 244]
II. CC(C)NCc1cc(F)cc(N2CCCC2c2cc(C(=O)N(C)C)cc3ncc(N4CCOCC4)nc23)c1 (stereo not drawn) [Compound 49]
III. CC(Nc1cc(F)cc(F)c1)c1cc(COCCO)cc2ncc(N3CCOCC3)nc12 (single isomer, unassigned) [Compound 177]
Order field: pKd | Direction: descending (largest first) The reply should contain the labels ordered as requested.
III, II, I

1. CC(c1cc(CO)cc2ncc(N3CCOCC3)nc12)N(C)c1cccc(F)c1 (stereo not drawn) [Compound 111]
2. C[C@@H]1CN(c2cnc3cc(C(=O)N(C)C)cc(C4CCCN4c4cccc(F)c4)c3n2)CCO1 (single isomer, unassigned) [Compound 29]
3. CN[C@H]1CCN(C(=O)c2cc(C(C)Nc3ccc(F)c(F)c3)c3nc(N4CCOCC4)cnc3c2)C1 (single isomer, unassigned) [Compound 365b]
Sequence the entries by pKd, beginning with the highest number. # format: label list in the order the request specifies
1, 3, 2
